B1: Twister Ribozyme (parent)
chain: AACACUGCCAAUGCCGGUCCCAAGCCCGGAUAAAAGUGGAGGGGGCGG

# Variants of: B1
# Experimental Protocol: self-cleavage, relative activity (ratio to wild type); higher = more cleavage; co-transcriptional
Assign a class from recorded self-cleavage; defined classes: band 1 = under 0.1, band 2 = from 0.1 up to 0.3, band 3 = 0.3 and over

In: For G24A G28U , which self-cleavage bin applies?
Out: band 1

In: Band assignment needed for C5U G47C please.
Out: band 3
